- Study System: hFASN enzyme (full length) (Homo sapiens)
- Construct: 10 μL hFASN enzyme (full length, 300 ng, purified in house); made in house
- Experiment Description: Fatty Acid Synthase (FASN) inhibition scintillation proximity assay
- Assay type: biochemical
- Condition Label: read-out: Human FASN pIC50 (converted)
Attribute Measured: IC50 (nM)
One number for each entry, in nM.

{"Structure String": "Cn1ncc2cc(-c3ccc(C4=NC5(CC5)C(=O)N4CC4CN(C(=O)C5(F)CC5)C4)c(F)c3)ccc21", "IC50 / nM": 120}

Hi there! I need IC50 for each item below, if you can.
1. Cn1ccc2cc(-c3ccc(C4=NC5(CC5)C(=O)N4CC4CN(C(=O)C5CC5)C4)c(F)c3)ccc21
2. Cn1cnc2cc(-c3ccc(C4=NC5(CC5)C(=O)N4CC4CN(C(=O)C5CC5)C4)c(F)c3)ccc21

Key:
26.9
63.1

# return IC50 for each item in the list
1. Cc1cc(-c2ccc3c(C)cc(Cl)nc3c2)ccc1C1=NC2(CC2)C(=O)N1CC1CN(C(=O)C2(C)CC2)C1
2. CC1(C(=O)N2CC(CN3C(=O)C4(CC4)N=C3c3ccc(-c4ccc5cc(C#N)ccc5c4)cc3F)C2)CC1
3. COc1cc(-c2ccc3[nH]ccc3c2)ccc1C1=NC2(CCCC2)C(=O)N1C[C@@H]1CCN(C(=O)C2CC2)C1
4. O=C(N1CC(CN2C(=O)C3(CC3)N=C2c2ccc(-c3ccc4cc(Cl)ccc4c3)cc2F)C1)C1(O)CC1

Key:
1. 2240
2. 22.9
3. 67.6
4. 24

====

Give log10(IC50) for every item shown.
- Study System: Fatty Acid Synthase Keto-reductase Domain (FASN KR) (Homo sapiens)
- Sequence (P49327 whole entry, the tested form may be a part): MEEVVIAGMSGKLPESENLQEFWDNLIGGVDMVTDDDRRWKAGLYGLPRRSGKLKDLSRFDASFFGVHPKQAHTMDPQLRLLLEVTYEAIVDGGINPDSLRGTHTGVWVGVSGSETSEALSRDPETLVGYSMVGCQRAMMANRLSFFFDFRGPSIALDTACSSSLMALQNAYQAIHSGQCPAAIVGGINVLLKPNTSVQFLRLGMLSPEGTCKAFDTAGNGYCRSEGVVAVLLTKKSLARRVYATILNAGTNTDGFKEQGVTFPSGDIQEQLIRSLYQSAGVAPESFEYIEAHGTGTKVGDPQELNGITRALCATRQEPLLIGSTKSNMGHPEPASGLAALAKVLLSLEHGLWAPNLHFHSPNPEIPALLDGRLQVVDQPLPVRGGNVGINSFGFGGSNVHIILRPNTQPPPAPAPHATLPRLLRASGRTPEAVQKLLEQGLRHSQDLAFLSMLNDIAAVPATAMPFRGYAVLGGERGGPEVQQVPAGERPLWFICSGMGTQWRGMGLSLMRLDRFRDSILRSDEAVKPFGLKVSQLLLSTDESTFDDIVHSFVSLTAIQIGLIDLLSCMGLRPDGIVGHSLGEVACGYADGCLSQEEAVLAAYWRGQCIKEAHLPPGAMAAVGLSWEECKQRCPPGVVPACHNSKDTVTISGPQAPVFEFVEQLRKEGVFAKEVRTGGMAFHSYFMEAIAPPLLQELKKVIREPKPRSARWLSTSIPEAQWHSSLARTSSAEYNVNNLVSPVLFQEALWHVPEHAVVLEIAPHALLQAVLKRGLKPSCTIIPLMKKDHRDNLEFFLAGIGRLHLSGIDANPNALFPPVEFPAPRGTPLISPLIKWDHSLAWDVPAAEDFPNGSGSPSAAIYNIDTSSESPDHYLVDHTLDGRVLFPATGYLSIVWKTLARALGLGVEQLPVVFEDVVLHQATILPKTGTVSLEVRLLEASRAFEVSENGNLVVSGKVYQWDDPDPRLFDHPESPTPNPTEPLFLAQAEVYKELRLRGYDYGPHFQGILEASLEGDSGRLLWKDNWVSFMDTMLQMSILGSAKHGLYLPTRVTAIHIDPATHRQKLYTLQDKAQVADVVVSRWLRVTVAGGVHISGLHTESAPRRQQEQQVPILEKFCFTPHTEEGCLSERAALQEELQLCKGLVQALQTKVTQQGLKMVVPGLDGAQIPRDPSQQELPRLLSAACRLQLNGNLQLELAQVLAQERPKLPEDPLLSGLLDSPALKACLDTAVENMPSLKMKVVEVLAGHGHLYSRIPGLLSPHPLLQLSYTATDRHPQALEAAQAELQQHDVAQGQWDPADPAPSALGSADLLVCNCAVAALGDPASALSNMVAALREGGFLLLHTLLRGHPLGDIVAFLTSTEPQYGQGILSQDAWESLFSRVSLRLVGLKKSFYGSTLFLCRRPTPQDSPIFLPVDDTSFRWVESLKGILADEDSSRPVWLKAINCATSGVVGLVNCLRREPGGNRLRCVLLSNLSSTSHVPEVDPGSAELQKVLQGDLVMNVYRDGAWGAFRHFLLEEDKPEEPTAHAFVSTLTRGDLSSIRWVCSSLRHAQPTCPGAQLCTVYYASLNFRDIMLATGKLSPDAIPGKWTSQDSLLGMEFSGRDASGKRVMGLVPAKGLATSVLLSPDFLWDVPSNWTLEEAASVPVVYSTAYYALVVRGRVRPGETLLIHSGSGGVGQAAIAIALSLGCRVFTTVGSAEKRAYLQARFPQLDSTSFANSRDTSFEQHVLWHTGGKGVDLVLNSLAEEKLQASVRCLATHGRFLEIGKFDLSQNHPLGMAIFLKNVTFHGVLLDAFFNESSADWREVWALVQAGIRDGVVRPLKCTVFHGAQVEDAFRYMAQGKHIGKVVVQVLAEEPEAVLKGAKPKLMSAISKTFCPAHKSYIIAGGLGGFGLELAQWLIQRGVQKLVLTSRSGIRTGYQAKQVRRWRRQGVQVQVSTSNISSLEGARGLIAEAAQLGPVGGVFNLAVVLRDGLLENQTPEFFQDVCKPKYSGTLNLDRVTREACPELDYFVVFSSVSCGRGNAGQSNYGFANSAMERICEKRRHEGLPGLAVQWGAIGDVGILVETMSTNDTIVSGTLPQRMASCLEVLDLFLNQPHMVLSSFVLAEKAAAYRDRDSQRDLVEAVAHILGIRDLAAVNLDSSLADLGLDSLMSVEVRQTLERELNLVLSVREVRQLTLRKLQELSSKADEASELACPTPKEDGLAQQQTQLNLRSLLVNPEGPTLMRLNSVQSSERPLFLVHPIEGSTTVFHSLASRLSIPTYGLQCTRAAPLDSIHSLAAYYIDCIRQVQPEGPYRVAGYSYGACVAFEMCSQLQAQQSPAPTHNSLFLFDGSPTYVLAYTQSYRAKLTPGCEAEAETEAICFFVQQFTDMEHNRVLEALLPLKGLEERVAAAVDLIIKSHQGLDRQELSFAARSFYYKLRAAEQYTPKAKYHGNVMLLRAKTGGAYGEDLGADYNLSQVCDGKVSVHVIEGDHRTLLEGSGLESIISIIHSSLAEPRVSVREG
Note: values are log10 of IC50 expressed in nM.

Example molecules with recorded log10(IC50):
{"Molecule": "O=C(C1CC1)N1CC[C@@H](CN2C(=O)C3(CCCC3)N=C2c2ccc(-c3ccc4occc4c3)cc2)C1 [compound 2]", "Recorded Measurement": 1.95}
{"Molecule": "O=C(C1CC1)N1CC[C@@H](CN2C(=O)C3(CCOCC3)N=C2c2ccc(-c3ccc4occc4c3)cc2)C1 [compound 667]", "Recorded Measurement": 2.53}
{"Molecule": "O=C(C1CC1)N1CC[C@@H](CN2C(=O)C3(CCCC3)N=C2c2ccc(-c3cccc4ncccc34)cc2)C1 [compound 66]", "Recorded Measurement": 2.45}

Provide the reported log10(IC50) of each entry below, same order.
1. Cc1cc(-c2ccc3cc(Cl)ccc3c2)ccc1C1=NC2(CC2)C(=O)N1CC1CN(C(=O)C2(C)CC2)C1 [compound 321]
2. Cn1nccc1-c1ccc(-c2ccc(C3=NC4(CC4)C(=O)N3C[C@@H]3CCN(C(=O)C4(C)CC4)C3)c(F)c2)cc1 [compound 362]
3. Cn1nc(C2CC2)c2cc(-c3ccc(C4=NC5(CC5)C(=O)N4C[C@@H]4CCN(C(=O)C5CC5)C4)cc3)ccc21 [compound 465]
4. COC(=O)N1CC2(C1)N=C(c1ccc(-c3ccc(-c4cnn(C)c4)cc3)cc1)N(C[C@@H]1CCN(C(=O)C3CC3)C1)C2=O [compound 725]

Key:
1: 1.68; 2: 2.10; 3: 2.30; 4: 2.81

====

Parameter 'readout' = IC50; parameter 'system' = Fatty Acid Synthase Keto-reductase Domain (FASN KR) (Homo sapiens).
Answers are plain numbers, in nM.

In the examples that follow, each entry is paired with its recorded IC50.
{"Structure String": "Cc1cc2cc(-c3ccc(C4=NC5(CC5)C(=O)N4C[C@@H]4CCN(C(=O)C5(O)CC5)C4)c(F)c3)ccc2o1", "Measurement Unit": "nM", "IC50": 42.7}
{"Structure String": "O=C(C1CC1)N1CC(CN2C(=O)C3(CCCC3)N=C2c2ccc(-c3ccc4occc4c3)cc2)C1", "Measurement Unit": "nM", "IC50": 1480}
{"Structure String": "Cc1cc(-c2ccc3c(cnn3C)c2)ccc1C1=NC2(CC2)C(=O)N1CC1CN(C(=O)C2CC2)C1", "Measurement Unit": "nM", "IC50": 245}

Kindly review the next compound as well.
Exercise: Recorded IC50 of `Cc1cc(-c2ccc(Cl)cc2Cl)ccc1C1=NC2(CCCC2)C(=O)N1C[C@@H]1CCN(C(=O)C2CC2)C1` , please.
Key: 891
